Target: T1, MAGE-A1 peptide on HLA-A*02:01 (human)
T1 peptide: KVLEYVIKV
Assay: JKR9 reporter + peptide-loaded T2, 16 h; full-length, on cells
measured_attribute: EC50 of peptide
Answer with the value and then the unit.

Field: example entries. Status: answers known.
Enquiry: Field request: EC50 of peptide | item: ht27M1004 (TCR, V domains shown) Valpha: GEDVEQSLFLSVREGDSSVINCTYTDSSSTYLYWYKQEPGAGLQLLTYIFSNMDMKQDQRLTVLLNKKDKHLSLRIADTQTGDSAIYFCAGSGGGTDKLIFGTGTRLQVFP Vbeta: GAVVSQHPSWVICKSGTSVKIECRSLDFQATTMFWYRQFPKQSLMLMATSNEGSKATYEQGVEKDKFLINHASLTLSTLTVTSAHPEDSSFYICSAREPGQGPFEQYFGPGTRLTVT
Return: 17.6 nM

Enquiry: What do you have for ht27M1011 (TCR, V domains shown) Valpha: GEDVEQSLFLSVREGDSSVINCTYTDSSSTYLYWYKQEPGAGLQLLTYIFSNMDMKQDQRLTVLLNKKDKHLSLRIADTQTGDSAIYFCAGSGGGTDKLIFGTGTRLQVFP Vbeta: GAVVSQHPSWVICKSGTSVKIECRSLDFQATTMFWYRQFPKQSLMLMATSDYQTCVTYEQGVEKDKFLINHASLTLSTLTVTSAHPEDSSFYICSAREPGQGPWEQYFGPGTRLTVT ?
Return: 8.24 nM

Enquiry: What do you have for ht27M1018 (TCR, V domains shown) Valpha: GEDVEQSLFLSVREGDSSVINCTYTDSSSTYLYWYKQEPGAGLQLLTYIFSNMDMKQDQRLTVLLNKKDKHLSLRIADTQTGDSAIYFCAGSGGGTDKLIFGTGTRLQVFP Vbeta: GAVVSQHPSWVICKSGTSVKIECRSLDFQATTMFWYRQFPKQSLMLMATSDYQTCVTYEQGVEKDKFLINHASLTLSTLTVTSAHPEDSSFYICSAREPGGGPFEQYFGPGTRLTVT ?
Return: 63.6 nM

Enquiry: What do you have for ht27M1010 (TCR, V domains shown) Valpha: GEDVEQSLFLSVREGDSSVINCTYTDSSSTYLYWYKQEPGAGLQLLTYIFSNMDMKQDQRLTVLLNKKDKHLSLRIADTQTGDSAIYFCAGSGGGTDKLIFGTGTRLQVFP Vbeta: GAVVSQHPSWVICKSGTSVKIECRSLDFQATTMFWYRQFPKQSLMLMATSDYQTCVTYEQGVEKDKFLINHASLTLSTLTVTSAHPEDSSFYICSAREPGQGPLEQYFGPGTRLTVT ?
Return: 20.3 nM

With those in mind, consider the next binder.
Enquiry: Field request: EC50 of peptide | item: ht27M1378 (TCR, V domains shown) Valpha: GEDVEQSLFLSVREGDSSVINCTYADYLSTYLYWYKQEPGAGLQLLTYIFSNMDMKQDQRLTVLLNKKDKHLSLRIADTQTGDSAIYFCAGSGGGTDKLIFGTGTRLQVFP Vbeta: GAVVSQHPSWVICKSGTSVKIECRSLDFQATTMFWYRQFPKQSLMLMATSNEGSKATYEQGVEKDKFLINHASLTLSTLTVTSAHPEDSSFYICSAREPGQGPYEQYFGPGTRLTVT
Return: 74 nM
